# Organism: Homo sapiens
# experiment description: Selectivity index, ratio of Ki for inhibition of human CA4 to Ki for inhibition of human CA12
property name: Ratio Ki
Would you mind answering with just the numeric figure?

Notebook: NS(=O)(=O)c1ccc(CCN(CCc2ccccc2)C(=O)CN(CCC(=O)O)CCc2ccccc2)cc1 , Ratio Ki read as 78.5

Notebook: NS(=O)(=O)c1ccc(CCNCCc2ccccc2)cc1 , Ratio Ki read as 34.4

Notebook: N#CCCN(CCc1ccccc1)CC(=O)N(CCc1ccc(S(N)(=O)=O)cc1)Cc1ccc([N+](=O)[O-])cc1 , Ratio Ki read as 27.1

Notebook: NS(=O)(=O)c1ccc(CCNCc2ccc(F)cc2)cc1 , Ratio Ki read as 19.9

Notebook: NS(=O)(=O)c1ccc(CCNCc2ccc([N+](=O)[O-])cc2)cc1 , Ratio Ki read as 21.4

Notebook: NS(=O)(=O)c1ccc(CCN(Cc2ccco2)C(=O)CN(CCC(=O)O)CCc2ccccc2)cc1 , Ratio Ki read as 47.3
